molecular target: Aurora kinase C (Homo sapiens) (UniProt Q9UQB9); assay: Percentage Aurora C activity remaining in the presence of 0.1uM inhibitor
Sequence (Q9UQB9 whole entry): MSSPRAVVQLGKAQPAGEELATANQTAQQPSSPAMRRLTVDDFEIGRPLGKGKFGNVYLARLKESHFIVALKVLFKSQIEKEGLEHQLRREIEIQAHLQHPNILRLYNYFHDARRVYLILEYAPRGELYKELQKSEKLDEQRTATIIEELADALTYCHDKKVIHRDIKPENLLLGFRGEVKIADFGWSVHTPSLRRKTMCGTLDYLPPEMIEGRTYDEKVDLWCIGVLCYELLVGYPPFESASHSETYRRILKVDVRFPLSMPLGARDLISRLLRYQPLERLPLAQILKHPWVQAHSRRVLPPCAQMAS

{"columns": ["Compound", "Activity [%]"],
 "data": [
  ["Cc1n[nH]c2ccc(-c3cncc(OC[C@@H](N)Cc4c[nH]c5ccccc45)c3)cc12", 92],
  ["CC(C)CCN1c2nc(Nc3cc(F)c(O)c(F)c3)ncc2N(C)C(=O)C1C (stereo not given)", 76],
  ["CC(C)[C@H](CO)Nc1nc(Nc2cccc(Cl)c2)c2ncn(C(C)C)c2n1 [PURVALANOLA]", 85],
  ["Cn1cc(C2=C(c3cn(CCCSC(=N)N)c4ccccc34)C(=O)NC2=O)c2ccccc21", 77],
  ["CN(C)C[C@@H]1CCn2cc(c3ccccc32)C2=C(C(=O)NC2=O)c2cn(c3ccccc23)CCO1", 92]
]}

====

target: Proto-oncogene tyrosine-protein kinase LCK (Mus musculus); assay: Inhibition of Lck in the presence of 50uM ATP
Sequence (P06240 whole entry): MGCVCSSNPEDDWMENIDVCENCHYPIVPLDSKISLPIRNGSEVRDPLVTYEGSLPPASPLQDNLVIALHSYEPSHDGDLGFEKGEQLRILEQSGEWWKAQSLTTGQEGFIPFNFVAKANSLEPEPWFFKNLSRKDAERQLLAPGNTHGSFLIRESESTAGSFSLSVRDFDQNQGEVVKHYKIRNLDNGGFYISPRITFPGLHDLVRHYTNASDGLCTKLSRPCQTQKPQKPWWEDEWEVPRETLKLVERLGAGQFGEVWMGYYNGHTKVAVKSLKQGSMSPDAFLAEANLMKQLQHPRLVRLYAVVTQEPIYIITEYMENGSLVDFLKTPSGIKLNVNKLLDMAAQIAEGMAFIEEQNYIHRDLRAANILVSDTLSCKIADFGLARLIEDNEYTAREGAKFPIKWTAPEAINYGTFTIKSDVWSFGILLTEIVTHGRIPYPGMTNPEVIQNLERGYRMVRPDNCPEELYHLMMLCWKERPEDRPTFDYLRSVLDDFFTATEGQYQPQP

{"columns": ["Smi", "Assay Target", "IC50"],
 "data": [
  ["CC(C)(C)n1nc(Cc2cccc3ccccc23)c2c(N)ncnc21", "Proto-oncogene tyrosine-protein kinase LCK (Mus musculus)", "460 nM (antagonist)"],
  ["Cc1ccc(-c2c(C(=O)CF)n(CCCO)c3ncnc(N)c23)cc1", "Proto-oncogene tyrosine-protein kinase LCK (Mus musculus)", "750 nM (antagonist)"],
  ["Cc1ccc(NC(=O)c2cccc(N(C)C)c2)cc1NC(=O)c1ccc(O)cc1", "Proto-oncogene tyrosine-protein kinase LCK (Mus musculus)", "570 nM (antagonist)"],
  ["CN(C)S(=O)(=O)c1ccc2c(c1)/C(=C/c1cc3c([nH]1)CCCC3)C(=O)N2", "Proto-oncogene tyrosine-protein kinase LCK (Mus musculus)", "150 nM (antagonist)"],
  ["CC(C)(C)n1nc(-c2cccc3ccccc23)c2c(N)ncnc21", "Proto-oncogene tyrosine-protein kinase LCK (Mus musculus)", "660 nM (antagonist)"],
  ["Nc1ncnc2[nH]nc(Nc3ccc(F)cc3)c12", "Proto-oncogene tyrosine-protein kinase LCK (Mus musculus)", "2500 nM (antagonist)"]
]}

====

molecular target: Serine/threonine-protein kinase Nek7 (Homo sapiens) (UniProt Q8TDX7); experiment: Percentage NEK7 activity remaining in the presence of 0.1uM inhibitor
Sequence (Q8TDX7 whole entry, looked up): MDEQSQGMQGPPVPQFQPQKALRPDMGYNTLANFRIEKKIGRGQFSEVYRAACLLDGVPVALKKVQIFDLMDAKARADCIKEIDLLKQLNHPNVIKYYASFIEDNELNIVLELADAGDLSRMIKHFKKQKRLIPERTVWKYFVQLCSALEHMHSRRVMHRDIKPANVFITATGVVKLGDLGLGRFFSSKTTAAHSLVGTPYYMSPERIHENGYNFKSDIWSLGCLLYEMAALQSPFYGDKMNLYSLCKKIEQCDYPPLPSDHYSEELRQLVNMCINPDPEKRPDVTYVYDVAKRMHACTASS
Below is a list of entries, each paired with its recorded Activity value.

{"columns": ["Compound", "Activity, %"],
 "data": [
  ["Cn1c2ccccc2c2c3c(c4c5ccccc5n(CCC#N)c4c21)CNC3=O", 98],
  ["Cc1n[nH]c2ccc(-c3cncc(OC[C@@H](N)Cc4c[nH]c5ccccc45)c3)cc12", 84],
  ["CC(C)[C@H](CO)Nc1nc(Nc2cccc(Cl)c2)c2ncn(C(C)C)c2n1", 105],
  ["CN(C)C[C@@H]1CCn2cc(c3ccccc32)C2=C(C(=O)NC2=O)c2cn(c3ccccc23)CCO1", 104],
  ["O=C(NCCCNc1nc(Nc2cccc(NC(=O)N3CCCC3)c2)ncc1I)c1cccs1", 99],
  ["CC(C)CCN1c2nc(Nc3cc(F)c(O)c(F)c3)ncc2N(C)C(=O)C1C (configuration not stated)", 108],
  ["Cn1cc(C2=C(c3cn(CCCSC(=N)N)c4ccccc34)C(=O)NC2=O)c2ccccc21", 101]
]}
